Experimental system: Human NK1 Receptor (Homo sapiens, UniProt P25103)
Construct: endogenous in cells; host or cells: Human lymphoma IM9 cells (whole cells)
Sequence (P25103 whole entry): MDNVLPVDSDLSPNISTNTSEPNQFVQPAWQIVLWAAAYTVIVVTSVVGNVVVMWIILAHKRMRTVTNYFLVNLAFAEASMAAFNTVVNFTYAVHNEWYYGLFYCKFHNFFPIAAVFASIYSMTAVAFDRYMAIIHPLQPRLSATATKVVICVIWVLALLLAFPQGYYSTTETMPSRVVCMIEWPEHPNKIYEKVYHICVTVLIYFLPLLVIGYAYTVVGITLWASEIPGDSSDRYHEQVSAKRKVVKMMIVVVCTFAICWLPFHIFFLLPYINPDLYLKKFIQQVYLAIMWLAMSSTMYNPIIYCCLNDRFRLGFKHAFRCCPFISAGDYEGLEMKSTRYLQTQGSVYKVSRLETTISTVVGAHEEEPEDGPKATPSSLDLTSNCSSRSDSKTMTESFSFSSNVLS
Procedure summary: In Vitro Human NK1 Receptor Binding Assay ([125I]Bolton-Hunter substance P displacement, IM9 cells)
Test settings: Human lymphoma IM9 cells, [125I]Bolton-Hunter substance P; Table 3, array-synthesis products; read-out: IC50 (nM) hNK1
Each item that follows carries a reported IC50.
Readout name: IC50 (nM)

Compound | Readout name | Result qualifier | Endpoint result
O=C(NC1CCCCC1O)C(Cc1c[nH]c2ccccc12)NCc1cc2ccccc2o1 (centres unmarked) | IC50 | > | 10000
O=C(NCc1ccc([N+](=O)[O-])cc1)C(Cc1c[nH]c2ccccc12)NCc1cc2ccccc2o1 (centres unmarked) | IC50 | = | 23
O=C(NCC1CCNCC1)C(Cc1c[nH]c2ccccc12)NCc1cc2ccccc2o1 (centres unmarked) | IC50 | > | 10000
CC(NC(=O)C(Cc1c[nH]c2ccccc12)NCc1cc2ccccc2o1)c1ccc(Cl)cc1 (centres unmarked) | IC50 | = | 7
O=C(NCc1cc(Cl)sc1Cl)C(Cc1c[nH]c2ccccc12)NCc1cc2ccccc2o1 (centres unmarked) | IC50 | = | 70
O=C(O)C1CCC(CNC(=O)C(Cc2c[nH]c3ccccc23)NCc2cc3ccccc3o2)CC1 (centres unmarked) | IC50 | > | 10000
O=C(NCc1ccc(Cl)c(Cl)c1)C(Cc1c[nH]c2ccccc12)NCc1cc2ccccc2o1 (centres unmarked) | IC50 | = | 30
CC(NC(=O)C(Cc1c[nH]c2ccccc12)NCc1cc2ccccc2o1)C1CCCCC1 (centres unmarked) [Example 294] | IC50 | = | 58
COC(=O)C(NC(=O)C(Cc1c[nH]c2ccccc12)NCc1cc2ccccc2o1)c1ccccc1 (centres unmarked) | IC50 | = | 43
COc1ccc(CNC(=O)C(Cc2c[nH]c3ccccc23)NCc2cc3ccccc3o2)cc1 (centres unmarked) | IC50 | = | 130
O=C(NCCc1ccc(F)cc1)C(Cc1c[nH]c2ccccc12)NCc1cc2ccccc2o1 (centres unmarked) | IC50 | = | 62
O=C(NCc1ccc(C(F)(F)F)cc1)C(Cc1c[nH]c2ccccc12)NCc1cc2ccccc2o1 (centres unmarked) | IC50 | = | 420
O=C(NCc1ccco1)C(Cc1c[nH]c2ccccc12)NCc1cc2ccccc2o1 (centres unmarked) | IC50 | = | 406
CC(NC(=O)C(Cc1c[nH]c2ccccc12)NCc1cc2ccccc2o1)c1ccccc1 (centres unmarked) | IC50 | = | 75
O=C(NCc1cccc(F)c1)C(Cc1c[nH]c2ccccc12)NCc1cc2ccccc2o1 (centres unmarked) | IC50 | = | 6
O=C(NCc1ccc(F)c(Cl)c1)C(Cc1c[nH]c2ccccc12)NCc1cc2ccccc2o1 (centres unmarked) | IC50 | = | 33
CC(NC(=O)C(Cc1c[nH]c2ccccc12)NCc1cc2ccccc2o1)c1cccc(N(C)C)c1 (centres unmarked) | IC50 | = | 182
O=C(NCC1CC2CCC1C2)C(Cc1c[nH]c2ccccc12)NCc1cc2ccccc2o1 (centres unmarked) | IC50 | = | 633
CN1CCCC1CCNC(=O)C(Cc1c[nH]c2ccccc12)NCc1cc2ccccc2o1 (centres unmarked) | IC50 | > | 10000
CC(NC(=O)C(Cc1c[nH]c2ccccc12)NCc1cc2ccccc2o1)C1CCCCC1 (centres unmarked) [Example 241] | IC50 | = | 2
